Quick list: log10 Ki per entry.
molecular target: D(2) dopamine receptor (Homo sapiens, UniProt P14416); test: Displacement of [3H]methylspiperone from dopamine D2 receptor expressed in CHO cells
Sequence (P14416 whole entry): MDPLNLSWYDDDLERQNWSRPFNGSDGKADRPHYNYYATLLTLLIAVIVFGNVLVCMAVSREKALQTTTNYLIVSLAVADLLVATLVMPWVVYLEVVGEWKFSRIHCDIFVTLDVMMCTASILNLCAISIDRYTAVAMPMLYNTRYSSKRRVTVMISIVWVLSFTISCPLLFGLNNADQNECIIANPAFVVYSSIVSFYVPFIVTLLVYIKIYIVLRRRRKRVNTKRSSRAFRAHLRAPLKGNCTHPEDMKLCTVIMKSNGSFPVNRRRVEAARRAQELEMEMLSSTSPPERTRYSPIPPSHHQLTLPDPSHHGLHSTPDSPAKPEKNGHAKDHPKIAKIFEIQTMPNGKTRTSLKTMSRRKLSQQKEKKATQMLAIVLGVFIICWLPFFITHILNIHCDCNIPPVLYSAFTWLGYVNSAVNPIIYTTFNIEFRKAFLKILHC
Field: value | Transform: log10 | Quantity: Ki | Unit: nM

chemical.smiles: FC(F)(F)Oc1cccc(CN2CCN(C3=Nc4cc(Cl)ccc4Nc4ccccc43)CC2)c1
log10 Ki: 0.53

Hi! What's the reported log10 Ki for `CN1CCN(C2=Nc3cc(Cl)ccc3N(NC(=O)c3cc(F)c(F)c(F)c3F)c3ccc(Cl)cc32)CC1` on D(2) dopamine receptor (Homo sapiens, UniProt P14416)?
2.43

====

target: D(1A) dopamine receptor (Homo sapiens, UniProt P21728); assay: Displacement of [3H]SCH 23390 from dopamine D1 receptor expressed in CHO cells; format: cell-based
Sequence (P21728 whole entry): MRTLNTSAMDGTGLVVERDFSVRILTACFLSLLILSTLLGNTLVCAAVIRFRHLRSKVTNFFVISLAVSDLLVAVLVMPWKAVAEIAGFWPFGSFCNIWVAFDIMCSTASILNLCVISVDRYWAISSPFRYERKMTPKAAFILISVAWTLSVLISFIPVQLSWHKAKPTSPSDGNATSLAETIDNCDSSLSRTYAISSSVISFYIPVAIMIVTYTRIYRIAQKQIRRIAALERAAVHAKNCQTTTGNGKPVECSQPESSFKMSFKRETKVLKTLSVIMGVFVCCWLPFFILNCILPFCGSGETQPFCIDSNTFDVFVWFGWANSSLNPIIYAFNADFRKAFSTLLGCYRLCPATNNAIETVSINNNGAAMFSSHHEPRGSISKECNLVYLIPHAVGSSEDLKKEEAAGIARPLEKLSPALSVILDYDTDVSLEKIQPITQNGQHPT
Lab note - cut at 80 nM for Ki: criterion met if strictly below, criterion not met if not.

Some entries whose results are on file:
chemical.smiles: CN1CCN(C2=Nc3ccccc3N(NC(=O)c3cccc(C#N)c3)c3ccc(Cl)cc32)CC1
assigned.label: criterion not met
//
chemical.smiles: CN1CCN(C2=Nc3cc(Cl)ccc3N(NC(=O)c3ccccc3I)c3ccc(Cl)cc32)CC1
assigned.label: criterion met

In the record for `CN1CCN(C2=Nc3cc(Cl)ccc3N(NC(=O)c3ccc4c(c3)OCO4)c3ccc(Cl)cc32)CC1` , is Ki less than 80 nM?
criterion not met

In the record for `CN1CCN(C2=Nc3cc(Cl)ccc3N(NC(=O)c3ccccc3Cl)c3ccccc32)CC1` , is Ki less than 80 nM?
criterion met

====

biological target: D(1A) dopamine receptor (Homo sapiens, UniProt P21728); assay: Displacement of [3H]SCH 23390 from dopamine D1 receptor expressed in CHO cells
endpoint: Ki (nM)
Please respond with the number in nM and leave the unit unwritten.

chemical.smiles: CN1CCN(C2=Nc3cc(Cl)ccc3N(NC(=O)c3cc(F)c(F)c(F)c3F)c3ccc(Cl)cc32)CC1
quantity.unit: nM
Ki: 98
--
chemical.smiles: CN1CCN(C2=Nc3ccccc3N(NC(=O)c3cc(F)c(F)c(F)c3F)c3ccc(Cl)cc32)CC1
quantity.unit: nM
Ki: 156

Hi! What's the reported Ki for `CN1CCN(C2=Nc3ccccc3N(NC(=O)c3ccc4c(c3)OCO4)c3ccc(Cl)cc32)CC1` on D(1A) dopamine receptor (Homo sapiens, UniProt P21728)?
83

====

biological target: UniProt:P14416; test: Displacement of [3H]methylspiperone from dopamine D2 receptor expressed in CHO cells
endpoint: Ki

chemical.smiles: O=C(NN1c2ccc(Cl)cc2N=C(N2CCN(Cc3ccc4c(c3)OCCO4)CC2)c2ccccc21)c1ccccc1Cl
system.under.test: UniProt:P14416
endpoint: Ki
measured.result: > 2000 nM

I have this compound here, `O=C(NN1c2ccc(Cl)cc2N=C(N2CCN(Cc3ccccc3F)CC2)c2ccccc21)c1ccccc1Cl` , and I need its recorded Ki.
> 2000 nM

I have this compound here, `O=C(NN1c2ccc(Cl)cc2N=C(N2CCN(Cc3cccc4c3OC(F)(F)O4)CC2)c2ccccc21)c1ccccc1Cl` , and I need its recorded Ki.
> 3000 nM

====

biological target: D(2) dopamine receptor (Homo sapiens); assay: Displacement of [3H]methylspiperone from dopamine D2 receptor expressed in CHO cells; type: cell-based
Quick list: pKi per entry.
On this scale, pKi is minus log10 of a concentration expressed in M (mol/L).

Use the examples below as a reference point.
chemical.smiles: COc1cc(C(=O)NN2c3ccc(Cl)cc3N=C(N3CCN(C)CC3)c3cc(Cl)ccc32)cc(OC)c1OC
pKi: 6.57
//
chemical.smiles: CN1CCN(C2=Nc3cc(Cl)ccc3N(NC(=O)c3ccc(C#N)cc3)c3ccc(Cl)cc32)CC1
pKi: 6.71
//
chemical.smiles: CN1CCN(C2=Nc3cc(Cl)ccc3N(NC(=O)c3cc(F)ccc3C(F)(F)F)c3ccc(Cl)cc32)CC1
pKi: 7.16
//
chemical.smiles: CCCN1CCN(C2=Nc3cc(Cl)ccc3N(NC(=O)c3ccccc3Cl)c3ccccc32)CC1
pKi: 6.39
//
chemical.smiles: Clc1ccc2c(c1)N=C(N1CCN(Cc3ccc4c(c3)OCCO4)CC1)c1ccccc1N2
pKi: 7.54
//
chemical.smiles: CCN1CCN(C2=Nc3cc(Cl)ccc3N(NC(=O)c3ccccc3Cl)c3ccccc32)CC1
pKi: 6.15

Hi! What's the reported pKi for `CN1CCN(C2=Nc3cc(Cl)ccc3N(NC(=O)c3cccc(C(F)(F)F)c3)c3ccccc32)CC1` on D(2) dopamine receptor (Homo sapiens)?
5.87

Hi! What's the reported pKi for `CN1CCN(C2=Nc3ccccc3N(NC(=O)c3cc(F)ccc3C(F)(F)F)c3ccc(Cl)cc32)CC1` on D(2) dopamine receptor (Homo sapiens)?
6.38

Hi! What's the reported pKi for `COc1cccc(C(=O)NN2c3ccc(Cl)cc3N=C(N3CCN(C)CC3)c3cc(Cl)ccc32)c1` on D(2) dopamine receptor (Homo sapiens)?
6.86

Hi! What's the reported pKi for `CN1CCN(C2=Nc3ccccc3N(NC(=O)c3ccc4c(c3)OCO4)c3ccc(Cl)cc32)CC1` on D(2) dopamine receptor (Homo sapiens)?
5.90

Hi! What's the reported pKi for `Cc1ccc(CN2CCN(C3=Nc4cc(Cl)ccc4Nc4ccccc43)CC2)c(C)c1` on D(2) dopamine receptor (Homo sapiens)?
7.19

====

target: D(1A) dopamine receptor (Homo sapiens, UniProt P21728); assay: Displacement of [3H]SCH 23390 from dopamine D1 receptor expressed in CHO cells
endpoint: Ki (nM)
Please respond with the number in nM and leave the unit unwritten.

Use the examples below as a reference point.
chemical.smiles: Clc1ccc2c(c1)N=C(N1CCN(Cc3ccc4c(c3)OCCO4)CC1)c1ccccc1N2
Ki, nM: 583
//
chemical.smiles: CC(C)CN1CCN(C2=Nc3cc(Cl)ccc3N(NC(=O)c3ccccc3Cl)c3ccccc32)CC1
Ki, nM: 81
//
chemical.smiles: CN1CCN(C2=Nc3cc(Cl)ccc3N(NC(=O)c3cccc(C(F)(F)F)c3)c3ccccc32)CC1
Ki, nM: 148
//
chemical.smiles: CN1CCN(C2=Nc3cc(Cl)ccc3N(NC(=O)c3ccccc3Br)c3ccccc32)CC1
Ki, nM: 16
//
chemical.smiles: COc1cc(C(=O)NN2c3ccc(Cl)cc3N=C(N3CCN(C)CC3)c3cc(Cl)ccc32)cc(OC)c1OC
Ki, nM: 16

I have this compound here, `CN1CCN(C2=Nc3ccccc3N(NC(=O)c3ccc(C#N)cc3)c3ccc(Cl)cc32)CC1` , and I need its recorded Ki.
64

I have this compound here, `COc1ccccc1CNN1c2ccc(Cl)cc2N=C(N2CCN(C)CC2)c2ccccc21` , and I need its recorded Ki.
60

I have this compound here, `CCN1CCN(C2=Nc3cc(Cl)ccc3N(NC(=O)c3ccccc3Cl)c3ccccc32)CC1` , and I need its recorded Ki.
54

I have this compound here, `COc1cc(C(=O)NN2c3ccc(Cl)cc3N=C(N3CCN(C)CC3)c3ccccc32)cc(OC)c1OC` , and I need its recorded Ki.
31

I have this compound here, `O=C(NN1c2ccc(Cl)cc2N=C(N2CCN(CC3CCCCC3)CC2)c2ccccc21)c1ccccc1Cl` , and I need its recorded Ki.
294

I have this compound here, `CN1CCN(C2=Nc3cc(Cl)ccc3N(NC(=O)c3ccc(C#N)cc3)c3ccc(Cl)cc32)CC1` , and I need its recorded Ki.
51

I have this compound here, `COc1cccc(C(=O)NN2c3ccc(Cl)cc3N=C(N3CCN(C)CC3)c3cc(Cl)ccc32)c1` , and I need its recorded Ki.
44

I have this compound here, `O=C(NN1c2ccc(Cl)cc2N=C(N2CCN(Cc3cccc4c3OCO4)CC2)c2ccccc21)c1ccccc1Cl` , and I need its recorded Ki.
571

I have this compound here, `O=C(NN1c2ccc(Cl)cc2N=C(N2CCN(Cc3ccc4c(c3)OCCO4)CC2)c2ccccc21)c1ccccc1Cl` , and I need its recorded Ki.
238
